- Tested system: human ether-à-go-go-related gene (hERG) potassium channel (human);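 note: peak tail current of the secondary pulse compared with the same well before compound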
- Sequence (Q12809 whole entry, looked up): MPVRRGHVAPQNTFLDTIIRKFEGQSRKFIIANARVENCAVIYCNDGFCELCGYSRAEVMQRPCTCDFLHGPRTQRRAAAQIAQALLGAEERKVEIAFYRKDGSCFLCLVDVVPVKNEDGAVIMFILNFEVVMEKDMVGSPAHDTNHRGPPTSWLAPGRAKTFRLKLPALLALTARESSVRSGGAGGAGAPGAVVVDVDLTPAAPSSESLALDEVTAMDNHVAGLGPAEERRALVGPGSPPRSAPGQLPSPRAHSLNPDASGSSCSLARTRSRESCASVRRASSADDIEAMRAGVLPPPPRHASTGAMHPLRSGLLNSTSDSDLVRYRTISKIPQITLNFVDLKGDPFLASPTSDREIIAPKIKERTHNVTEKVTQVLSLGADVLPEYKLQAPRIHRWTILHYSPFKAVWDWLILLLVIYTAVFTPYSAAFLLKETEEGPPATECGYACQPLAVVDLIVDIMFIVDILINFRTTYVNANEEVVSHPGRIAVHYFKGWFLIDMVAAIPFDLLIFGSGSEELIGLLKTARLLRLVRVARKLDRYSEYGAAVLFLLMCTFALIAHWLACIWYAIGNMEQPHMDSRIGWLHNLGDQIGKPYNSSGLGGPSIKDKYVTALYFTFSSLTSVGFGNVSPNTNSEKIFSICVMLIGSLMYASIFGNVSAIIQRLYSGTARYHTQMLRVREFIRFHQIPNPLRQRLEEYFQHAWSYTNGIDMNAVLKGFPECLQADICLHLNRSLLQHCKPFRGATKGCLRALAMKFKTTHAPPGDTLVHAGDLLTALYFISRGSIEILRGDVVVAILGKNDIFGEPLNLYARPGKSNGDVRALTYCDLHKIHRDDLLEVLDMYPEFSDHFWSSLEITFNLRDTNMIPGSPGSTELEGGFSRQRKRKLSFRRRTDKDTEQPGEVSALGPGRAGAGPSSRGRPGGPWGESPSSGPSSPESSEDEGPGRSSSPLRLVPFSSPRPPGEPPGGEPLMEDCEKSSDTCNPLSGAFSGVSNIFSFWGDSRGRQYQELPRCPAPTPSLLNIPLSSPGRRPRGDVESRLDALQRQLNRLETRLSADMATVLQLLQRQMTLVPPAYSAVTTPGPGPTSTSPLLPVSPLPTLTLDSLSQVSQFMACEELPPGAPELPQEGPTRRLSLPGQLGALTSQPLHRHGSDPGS
- Experiment description: primary screen, population patch clamp on CHO cells stably expressing hERG; higher = less effect of the substance
In all, about 310,000 compounds went through this assay and about 14,000 (4.5%) showed an effect of 50% or more. The effect is printed as a negative number. The sample holds strong results, similar compounds and a random draw of the others, so the mix is not that of the screen.
Assay metric: hERG current change (%, negative = inhibition) at 10uM (%)

[
  {
    "Compound": "Cc1ccc(S(=O)(=O)N/N=C\\c2ccc3c(c2)OCO3)cc1C",
    "Unit text": "%",
    "Number": -11.8
  },
  {
    "Compound": "Cn1c(CCN2CCCCC2)nc2cc(NC(=O)Nc3ccccc3)ccc21",
    "Unit text": "%",
    "Number": -28
  },
  {
    "Compound": "Cn1c(CCN2CCCCC2)nc2cc(NS(=O)(=O)c3ccc(Cl)cc3)ccc21",
    "Unit text": "%",
    "Number": -73.8
  },
  {
    "Compound": "COC(=O)c1c(NC(=O)c2ccco2)sc2c1CC(C)(C)NC2(C)C",
    "Unit text": "%",
    "Number": -21.2
  },
  {
    "Compound": "CCOC(=O)c1sc(NC(=O)C(CC)Sc2nnc3c4ccccc4n(CC)c3n2)nc1C (stereo not drawn)",
    "Unit text": "%",
    "Number": -59.4
  },
  {
    "Compound": "CC(NS(=O)(=O)OCC(Cl)(Cl)Cl)c1ccccc1 (stereo not drawn)",
    "Unit text": "%",
    "Number": 9.74
  },
  {
    "Compound": "O=S(=O)(Nc1c(F)cccc1F)c1ccc2c(c1)OCCO2",
    "Unit text": "%",
    "Number": 9.82
  },
  {
    "Compound": "COc1ccc(CCNS(=O)(=O)c2cccc(F)c2)cc1OC",
    "Unit text": "%",
    "Number": -1.75
  },
  {
    "Compound": "CC1CCc2nc3ccc(S(=O)(=O)N4CCC(C(=O)NCc5ccccc5Cl)CC4)cc3c(C(=O)O)c2C1 (stereo not drawn)",
    "Unit text": "%",
    "Number": 7.04
  }
]

* * *

Measured hERG current change (%, negative = inhibition) at 10uM, listed per entry.
- Tested system: human ether-à-go-go-related gene (hERG) potassium channel (human);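 note: peak tail current of the secondary pulse compared with the same well before compound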
- Experiment description: primary screen, population patch clamp on CHO cells stably expressing hERG; higher = less effect of the substance
Out of some 310,000 compounds screened, about 14,000 (4.5%) showed an effect of 50% or more. Effects have a minus sign here. The list comes from a sample in which strong results are over-represented; it also holds close analogues and randomly drawn compounds.
Assay metric: hERG current change (%, negative = inhibition) at 10uM (%)

[
  {
    "Compound": "CC(C)c1ccc(N=c2c([N+](=O)[O-])nn(-c3ccc4c(c3)OCCO4)n2O)cc1",
    "Unit text": "%",
    "Number": 1.98
  },
  {
    "Compound": "COC(=O)C1C(O)=C(C(C)=N)C(=O)CC1(C)C (centres unmarked)",
    "Unit text": "%",
    "Number": 22.9
  },
  {
    "Compound": "CCN(C(=O)CSc1nc2ccccc2c(=O)n1-c1ccc(C)cc1)C1CCS(=O)(=O)C1 (centres unmarked)",
    "Unit text": "%",
    "Number": -11.6
  },
  {
    "Compound": "COc1ccc(C(=O)C2CCCN(C(=O)c3cc(C)on3)C2)cc1F (centres unmarked)",
    "Unit text": "%",
    "Number": -6.98
  },
  {
    "Compound": "Cc1ccc(S(=O)(=O)N2CCCOC2CNC(=O)C(=O)NCc2ccc3c(c2)OCO3)cc1 (centres unmarked)",
    "Unit text": "%",
    "Number": -13.4
  },
  {
    "Compound": "Cl.O=C(NCCc1ccccn1)c1cc(-c2cccc3ccccc23)nc2ccccc12",
    "Unit text": "%",
    "Number": -27.1
  },
  {
    "Compound": "O=C(CN1CCCCC1)N1CCCc2ccccc21.O=C(O)C(=O)O",
    "Unit text": "%",
    "Number": 2.82
  },
  {
    "Compound": "Cc1ccsc1C1C(C#N)=C(N)OC2=C1C(=O)CC(C)(C)C2 (centres unmarked)",
    "Unit text": "%",
    "Number": -6.69
  },
  {
    "Compound": "CCn1c(SCC(=O)N(Cc2ccccc2)C2CCS(=O)(=O)C2)nc2ccccc2c1=O (centres unmarked)",
    "Unit text": "%",
    "Number": -61
  },
  {
    "Compound": "O=S(=O)(c1cccs1)N1CCN(Cc2nc3ccccc3s2)CC1",
    "Unit text": "%",
    "Number": -27.8
  },
  {
    "Compound": "Cc1ccccc1NC(=O)CSc1nc(N)c(C#N)cc1C#N",
    "Unit text": "%",
    "Number": 0.675
  },
  {
    "Compound": "Cc1ccc(C2OC(=O)C=C2c2ccccc2)cc1 (centres unmarked)",
    "Unit text": "%",
    "Number": 3.71
  },
  {
    "Compound": "Cc1ccc(-c2cc(C(=O)NCCc3ccccn3)c3ccccc3n2)c(C)c1",
    "Unit text": "%",
    "Number": -51.1
  },
  {
    "Compound": "CC(C)(C)c1ccc(C(=O)N2CCN(S(=O)(=O)c3ccc(Br)s3)CC2)cc1",
    "Unit text": "%",
    "Number": 1.21
  },
  {
    "Compound": "COc1cccc(-c2cc(C(=O)NN3CCOCC3)c3ccccc3n2)c1",
    "Unit text": "%",
    "Number": -24.3
  },
  {
    "Compound": "O=C(COc1ccccc1)N1CCN(S(=O)(=O)c2cccs2)CC1",
    "Unit text": "%",
    "Number": -31
  },
  {
    "Compound": "COc1ccccc1CN1CCc2c([nH]c3ccccc23)C1",
    "Unit text": "%",
    "Number": -23
  },
  {
    "Compound": "CCN(C(=O)CSc1nc2ccccc2n1CC)C1CCS(=O)(=O)C1 (centres unmarked)",
    "Unit text": "%",
    "Number": 0.264
  },
  {
    "Compound": "O=C(CCCc1nc2ccccc2s1)N1CCN(S(=O)(=O)c2cccs2)CC1",
    "Unit text": "%",
    "Number": -11.9
  },
  {
    "Compound": "COc1ccc(NC(=O)c2ccc(COc3ccccc3Br)o2)c(OC)c1",
    "Unit text": "%",
    "Number": 10.5
  },
  {
    "Compound": "CCOC(=O)CNC(=O)c1nn(-c2cccc(OC)c2)c(=O)c2ccccc12",
    "Unit text": "%",
    "Number": -22.9
  },
  {
    "Compound": "COc1cccc(CN2CCN(S(=O)(=O)c3ccccc3)CC2)c1OC",
    "Unit text": "%",
    "Number": -4.11
  },
  {
    "Compound": "CC(C)C12CCC(C(=O)O)C(C1)C(=O)O2 (centres unmarked)",
    "Unit text": "%",
    "Number": 13.9
  },
  {
    "Compound": "Cc1cc(Cl)ccc1C(=O)C1CCCN(C(=O)c2cc(C(C)C)no2)C1 (centres unmarked)",
    "Unit text": "%",
    "Number": -22.7
  },
  {
    "Compound": "CNc1nc(C)nc(-n2nc(C)cc2C)n1",
    "Unit text": "%",
    "Number": 15.8
  },
  {
    "Compound": "CC(C)[C@H](NC(=O)c1cc2cc(Cl)ccc2n1C)C(=O)N[C@@H](C(=O)O)c1ccccc1",
    "Unit text": "%",
    "Number": 15.9
  },
  {
    "Compound": "N#CC1(CCCN2CCCCC2)c2ccccc2CCc2ccccc21.O=C(O)C(=O)O",
    "Unit text": "%",
    "Number": -52.7
  },
  {
    "Compound": "N#Cc1ccc(C(=O)N2CCN(S(=O)(=O)c3ccc(Br)s3)CC2)cc1",
    "Unit text": "%",
    "Number": -63.5
  },
  {
    "Compound": "NS(=O)(=O)c1ccc(CCNC(=O)CNCCc2ccccc2)cc1",
    "Unit text": "%",
    "Number": 16.2
  },
  {
    "Compound": "N#Cc1ccc(C(=O)N2CCN(S(=O)(=O)c3ccc(Cl)s3)CC2)cc1",
    "Unit text": "%",
    "Number": -49.9
  },
  {
    "Compound": "O=C(CCc1nc2ccccc2s1)N1CCN(S(=O)(=O)c2cccs2)CC1",
    "Unit text": "%",
    "Number": -66.7
  },
  {
    "Compound": "Cc1ccc(C)c(-c2cc(C(=O)NN3CCOCC3)c3ccccc3n2)c1",
    "Unit text": "%",
    "Number": -17.1
  },
  {
    "Compound": "O=C(NCCc1ccccn1)c1cc(-c2ccccc2Cl)nc2ccccc12",
    "Unit text": "%",
    "Number": -2.8
  },
  {
    "Compound": "O=C(O)c1cc(-c2cccs2)nc2ccc(Br)cc12",
    "Unit text": "%",
    "Number": 21
  },
  {
    "Compound": "Cc1ccc(-n2c(SCC(=O)N(C)C3CCS(=O)(=O)C3)nc3ccccc3c2=O)cc1 (centres unmarked)",
    "Unit text": "%",
    "Number": 11
  },
  {
    "Compound": "Cc1cc(C)n(-c2nc(C)nc(NCc3ccccc3)n2)n1",
    "Unit text": "%",
    "Number": -86.9
  },
  {
    "Compound": "CCC12CN3CCN(CC(C3)/C1=N/NC(=O)c1ccncc1)C2",
    "Unit text": "%",
    "Number": 21.2
  },
  {
    "Compound": "O=C(c1ccc2ccccc2c1)N1CCCC1",
    "Unit text": "%",
    "Number": 19.2
  },
  {
    "Compound": "Cc1c(-c2cccc(Cl)c2)nc2ccccc2c1C(=O)NC1CC1",
    "Unit text": "%",
    "Number": -60.6
  },
  {
    "Compound": "CN(C)CCCN1c2ccccc2Sc2ccc(Cl)cc21.Cl",
    "Unit text": "%",
    "Number": -42.2
  },
  {
    "Compound": "N#Cc1ccc(OCC(=O)N2CCN(S(=O)(=O)c3ccc(Cl)s3)CC2)cc1",
    "Unit text": "%",
    "Number": -69.5
  }
]

From: paper PMC4336329
